- System: MDA-N
- method: NCI tumour cell line growth inhibition, 48 h
TGI: recorded values
value-kind: TGI

compound	assay-value
Oc1ccc2ccccc2c1NCn1nc(CCCCCCCCc2nn(CNc3c(O)ccc4ccccc34)c(=S)o2)oc1=S	> 100 µM
COc1cccc(N2C(=O)C3c4[nH]c5ccc(C)cc5c4C4CCC(C)CC4C3C2=O)c1 (stereo not given)	> 100 µM
COC1=CC(=O)c2c(n[nH]c2CCNC(=O)OCc2ccccc2)C1=O	4.61 µM
O=C(/N=C1/OC(CN2CCOCC2)CN1C(=O)Nc1ccccc1)Nc1ccccc1 (stereo not given)	> 100 µM
C=C(C[C@@H](O)[C@H](C)NC(=O)OCc1ccccc1)C(=O)OC(C)(C)C	> 100 µM
Clc1ccc(N/N=C(\c2ccccc2)c2ccccn2)nc1	26.5 µM
CC(=O)c1c(C)cc2cccc(OC3OC(CO)C(O)C(O)C3O)c2c1O (stereo not given) (tested in a mixture with another compound)	> 100 µM
COc1cc(/C=C2\CC(C)C/C(=C\c3ccc(O)c(OC)c3)C2=O)ccc1O (stereo not given)	7.37 µM
C=CC[C@@]12CCC(=O)C=C1CCCC2=O	> 100 µM
CC(=O)c1sc2n(C)c(=O)c3ccccc3[n+]2c1C	> 100 µM
